System: NCI-H292 lung cancer cells
Test: FDA drug screening, complete media vs cholesterol-free media with simvastatin (TABLE 2)
Type: cell-based, human
Settings: complete media minus cholesterol-free media + simvastatin; >0 enhanced anti-cancer activity, about 0 neutral, <0 antagonist
Structures can show the parent of a compound that is named as a salt.
We begin with a simple list: items and their reported Difference.
I'd appreciate a reply containing only the number, no unit.

[
  {
    "Compound": "CC(C)CN(C[C@@H](O)[C@H](Cc1ccccc1)NC(=O)O[C@H]1CCOC1)S(=O)(=O)c1ccc(N)cc1 [Amprenavir]",
    "Difference": 0.33
  },
  {
    "Compound": "CCOC(=O)n1ccn(C)c1=S [Carbimazole]",
    "Difference": 0.05
  },
  {
    "Compound": "NCc1ccccc1CC(=O)N[C@@H]1C(=O)N2C(C(=O)O)=C(CSc3nnnn3CC(=O)O)CS[C@H]12 [Ceforanide]",
    "Difference": 0.30
  }
]

Quick one: Difference for CC(C)(C)C(=O)Oc1ccc(S(=O)(=O)Nc2ccccc2C(=O)NCC(=O)O)cc1 [Sivelestat] ? 0.07

Quick one: Difference for Cn1c(=O)c2[nH]c(Br)nc2n(C)c1=O [Pamabrom] ? 0.02

Quick one: Difference for Cn1c(=O)c2c(ncn2CCO)n(C)c1=O [Etofylline] ? 0.16

Quick one: Difference for COCCCN1CCC(NC(=O)c2cc(Cl)c(N)c3c2OCC3)CC1 [Prucalopride] ? 0.11

Quick one: Difference for C=C(CC)C(=O)c1ccc(OCC(=O)O)c(Cl)c1Cl [Ethacrynic acid] ? 0.11

Quick one: Difference for CCCc1nn(C)c2c(=O)[nH]c(-c3cc(S(=O)(=O)N4CCN(CCO)CC4)ccc3OCC)nc12 [Lodenafil] ? 0.03

Quick one: Difference for CC1=NS(=O)(=O)c2cc(Cl)ccc2N1 [Diazoxide] ? 0.09

Quick one: Difference for CCCCC[C@H](O)/C=C/[C@H]1[C@H](O)CC(=O)[C@@H]1C/C=C\CCCC(=O)O [Prostaglandin E2] ? 0.07

Quick one: Difference for Cn1cc(-c2cc3c(N4CCN(c5ncc([C@@](C)(N)c6ccc(F)cc6)cn5)CC4)ncnn3c2)cn1 [avapritinib, reference compound] ? 0.31

Quick one: Difference for Nc1nc(NC2CC2)c2ncn([C@H]3C=C[C@@H](CO)C3)c2n1 [Abacavir] ? 0.18

Quick one: Difference for CC12CC3CC(C)(C1)CC(N)(C3)C2 [Memantine (hydrochloride)] ? 0.05

Source of measurements: patent US20250144067A1
